FYI, the data here is from patent US20110224297A1.

# ASSAY DETAILS: Pharmacokinetic studies in mice
# Format: in vivo, CD2F1 mice
# PROTOCOL CONDITIONS: CD2F1, mouse, plasma, ip, 1.9 mg/kg, mice, IP (1.9 mg/kg), 2-compartment model; read-out: T1/2 b (converted)

- COMPOUND: "CC(=O)O[C@@]12C[C@@H](C)[C@@]3(O)[C@@H](C=C(CO)C[C@]4(O)C(=O)C(C)=C[C@@H]34)[C@@H]1C2(C)C [prostratin, 12-deoxyphorbol 13-acetate]"
  half-life, h: 210

---

# ASSAY DETAILS: Pharmacokinetics following intravenous and oral administration to rats
# Type: in vivo
# PROTOCOL CONDITIONS: male, rat, plasma, iv, 0.8 mg/kg, male rats, 0.8 mg/kg i.v. infusion; read-out: mean Vss

- COMPOUND: "CC(=O)O[C@@]12C[C@@H](C)[C@@]3(O)[C@@H](C=C(CO)C[C@]4(O)C(=O)C(C)=C[C@@H]34)[C@@H]1C2(C)C [prostratin, 12-deoxyphorbol 13-acetate]"
  Vd, L/kg: 2.22

---

# ASSAY DETAILS: Dose-range finding study in monkeys and determination of MTD
# Format: in vivo, rhesus macaque monkeys
# PROTOCOL CONDITIONS: rhesus monkey, in vivo, intravenous; as restated in Example 13; read-out: MTD later found in monkeys at NIH

- COMPOUND: "CC(=O)O[C@@]12C[C@@H](C)[C@@]3(O)[C@@H](C=C(CO)C[C@]4(O)C(=O)C(C)=C[C@@H]34)[C@@H]1C2(C)C [prostratin, 12-deoxyphorbol 13-acetate]"
  MTD at 15 days: "0.2 to 0.4 mg/kg"

---

# ASSAY DETAILS: Pharmacokinetics following intravenous and oral administration to rats
# Format: in vivo
# PROTOCOL CONDITIONS: rat, plasma; male rats, 1.8 mg/kg oral, Group 3; read-out: mean plasma concentration just prior to the second oral dose at 4 hours

- COMPOUND: "CC(=O)O[C@@]12C[C@@H](C)[C@@]3(O)[C@@H](C=C(CO)C[C@]4(O)C(=O)C(C)=C[C@@H]34)[C@@H]1C2(C)C [prostratin, 12-deoxyphorbol 13-acetate]"
  concentration at 4 h [ng/mL]: 17.9

---

# ASSAY DETAILS: Pharmacokinetics following intravenous and oral administration to rats
# Format: in vivo
# PROTOCOL CONDITIONS: rat, plasma; male rats, single 2.4-mg/kg oral dose

- COMPOUND: "CC(=O)O[C@@]12C[C@@H](C)[C@@]3(O)[C@@H](C=C(CO)C[C@]4(O)C(=O)C(C)=C[C@@H]34)[C@@H]1C2(C)C [prostratin, 12-deoxyphorbol 13-acetate]"
  Cmax, ng/mL: 49.7

---

# ASSAY DETAILS: Pharmacokinetics following intravenous and oral administration to rats
# Format: in vivo
# PROTOCOL CONDITIONS: rat, plasma; male rats, 0.8-mg/kg intravenous infusion over 3 hours
READOUT: Cmax (ng/mL)

- COMPOUND: "CC(=O)O[C@@]12C[C@@H](C)[C@@]3(O)[C@@H](C=C(CO)C[C@]4(O)C(=O)C(C)=C[C@@H]34)[C@@H]1C2(C)C [prostratin, 12-deoxyphorbol 13-acetate]"
  READOUT: "Cmax"
  UNIT LABEL: "ng/mL"
  REPORTED VALUE: 159

---

# ASSAY DETAILS: Pharmacokinetics following intravenous and oral administration to rats
# Assay type: in vivo
# PROTOCOL CONDITIONS: male, rat, plasma, iv, 0.8 mg/kg, male rats, 0.8 mg/kg i.v. infusion; read-out: mean Vz
READOUT: Vd (L/kg)

- COMPOUND: "CC(=O)O[C@@]12C[C@@H](C)[C@@]3(O)[C@@H](C=C(CO)C[C@]4(O)C(=O)C(C)=C[C@@H]34)[C@@H]1C2(C)C [prostratin, 12-deoxyphorbol 13-acetate]"
  REPORTED VALUE: 6.41

---

# ASSAY DETAILS: Pharmacokinetics following intravenous and oral administration to rats
# Type: in vivo
# PROTOCOL CONDITIONS: rat, plasma; male rats, 1.8-mg/kg oral doses BID, following the second dose

- COMPOUND: "CC(=O)O[C@@]12C[C@@H](C)[C@@]3(O)[C@@H](C=C(CO)C[C@]4(O)C(=O)C(C)=C[C@@H]34)[C@@H]1C2(C)C [prostratin, 12-deoxyphorbol 13-acetate]"
  Cmax / ng/mL: 55.1

---

# ASSAY DETAILS: Pharmacokinetics following intravenous and oral administration to rats
# Assay type: in vivo
# PROTOCOL CONDITIONS: male, rat, plasma, po, 1.8 mg/kg, male rats, 1.8 mg/kg BID oral, after the second dose; read-out: mean t1/2 (converted)

- MOLECULE: "CC(=O)O[C@@]12C[C@@H](C)[C@@]3(O)[C@@H](C=C(CO)C[C@]4(O)C(=O)C(C)=C[C@@H]34)[C@@H]1C2(C)C [prostratin, 12-deoxyphorbol 13-acetate]"
  half-life: "4.07 h"

---

# ASSAY DETAILS: Pharmacokinetics following intravenous and oral administration to rats
# Type: in vivo
# PROTOCOL CONDITIONS: male, rat, plasma, iv, 0.8 mg/kg, male rats, after 3-hour intravenous infusion 0.8 mg/kg; read-out: mean t1/2 (converted)
# Protocol: In order to find out the best route of administration and the correct concentration of prostratin, the drug was administered as an intravenous infusion over three hours as well as a single and twice oral administration to 3 groups of rats. The goal of this experiment was to find out if greater amounts of prostratin can be administered over a longer period of time. […]
READOUT: half-life (h)

- MOLECULE: "CC(=O)O[C@@]12C[C@@H](C)[C@@]3(O)[C@@H](C=C(CO)C[C@]4(O)C(=O)C(C)=C[C@@H]34)[C@@H]1C2(C)C [prostratin, 12-deoxyphorbol 13-acetate]"
  REPORTED VALUE: 2.49

---

# ASSAY DETAILS: Pharmacokinetic studies in mice
# Format: in vivo, CD2F1 mice
# PROTOCOL CONDITIONS: CD2F1, mouse, plasma, iv, 0.76 mg/kg, mice, IV (0.76 mg/kg), 2-compartment model; read-out: T1/2 a (converted)
READOUT: half-life (min)

- MOLECULE: "CC(=O)O[C@@]12C[C@@H](C)[C@@]3(O)[C@@H](C=C(CO)C[C@]4(O)C(=O)C(C)=C[C@@H]34)[C@@H]1C2(C)C [prostratin, 12-deoxyphorbol 13-acetate]"
  REPORTED VALUE: 27.6

---

# ASSAY DETAILS: In vivo rat bone marrow micronucleus assay
# Parameters: species or system CD® (SD) IGS BR rat
# PROTOCOL CONDITIONS: CD (SD) IGS BR, rat, in vivo; female rats, once by oral gavage, dose range-finding study; read-out: maximum tolerated dose

- COMPOUND: "CC(=O)O[C@@]12C[C@@H](C)[C@@]3(O)[C@@H](C=C(CO)C[C@]4(O)C(=O)C(C)=C[C@@H]34)[C@@H]1C2(C)C [prostratin, 12-deoxyphorbol 13-acetate]"
  MTD: "2 mg/kg"

---

# ASSAY DETAILS: Pharmacokinetic studies in mice
# Format: in vivo, CD2F1 mice
# PROTOCOL CONDITIONS: CD2F1, mouse, plasma, iv, 0.76 mg/kg, mice, IV (0.76 mg/kg), 2-compartment model; read-out: T1/2 b (converted)
# Method: Studies were conducted in CD2F1 mice using both the i.p. route (1.9 mg/kg) and the i.v. route (0.76 mg/kg). The vehicle was 10% DMSO: 10% Cremophor: 80%:0.9% saline for both routes. Doses used were preciously determined as maximally tolerated. Drug was detected out to 4 hr but was only quantifiable out to 3 hr post drug administration (see FIG. 5A, B). […] Data that were detected beyond 3 hr post drug administration are shown as “BLQ” (below the limit of quantification of the validated assay). […]

- COMPOUND: "CC(=O)O[C@@]12C[C@@H](C)[C@@]3(O)[C@@H](C=C(CO)C[C@]4(O)C(=O)C(C)=C[C@@H]34)[C@@H]1C2(C)C [prostratin, 12-deoxyphorbol 13-acetate]"
  UNIT LABEL: "min"
  half-life: 1170

---

# ASSAY DETAILS: Pharmacokinetics following intravenous and oral administration to rats
# Format: in vivo
# PROTOCOL CONDITIONS: male, rat, plasma, po, 2.4 mg/kg, three male rats, single 2.4-mg/kg oral dose; read-out: Bioavailability (% F), mean

- COMPOUND: "CC(=O)O[C@@]12C[C@@H](C)[C@@]3(O)[C@@H](C=C(CO)C[C@]4(O)C(=O)C(C)=C[C@@H]34)[C@@H]1C2(C)C [prostratin, 12-deoxyphorbol 13-acetate]"
  bioavailability: "13.3%"

---

# ASSAY DETAILS: Pharmacokinetics following intravenous and oral administration to rats
# Type: in vivo
# PROTOCOL CONDITIONS: male, rat, plasma, po, 2.4 mg/kg, three male rats, single 2.4-mg/kg oral dose; read-out: Bioavailability (% F), range
# Description: In order to find out the best route of administration and the correct concentration of prostratin, the drug was administered as an intravenous infusion over three hours as well as a single and twice oral administration to 3 groups of rats. The goal of this experiment was to find out if greater amounts of prostratin can be administered over a longer period of time. […]
READOUT: bioavailability

- COMPOUND: "CC(=O)O[C@@]12C[C@@H](C)[C@@]3(O)[C@@H](C=C(CO)C[C@]4(O)C(=O)C(C)=C[C@@H]34)[C@@H]1C2(C)C [prostratin, 12-deoxyphorbol 13-acetate]"
  REPORTED VALUE: "7.7 to 23.1%"
